Test system: MS2 coat protein
assayProcedure: apparent Kd, MS2 coat protein; higher = weaker binding; RNA-MaP array; FMN 200 µM where present
conditionDescription: ligand present: flavin mononucleotide; designed as: OFF switch for flavin mononucleotide
Answer each item with its documented apparent Kd.
Numbers only; they are read as nM.

// query apparent Kd value for entry UCGUUGUCAGGAUAUCGUUAAUUUAAUUGUUUGUAUUAGUUCGAGAAGGGACAUGAGGAUCACCCAUGUUUGUU 154

// query apparent Kd value for entry GGGCAAUUAGGAUAUACAUGAGGAUCACCCAUGUGGAAGCCCGGACAGGUAAUCCACUGUAGAAGGGAUUGCGG 15

// query apparent Kd value for entry UUUUAACAUGAGGAUCACCCAUGUGAGGAUAUCGAAAUUUAUAUUUAUAUUAAUUAUUCGAGAAGGCACAUUUU 133

// query apparent Kd value for entry CUCGUGUGAGGAUAUCUAUUCCACGGACGGGAGUCUUGAAGAGAGAAGGCACAUGAGGAUCACCCAUGUAAUAA 33.7

// query apparent Kd value for entry GGCUGGUGACAGCAUCCAUCAAAACAUGAGGAUCACCCAUGUAGAAGGCUGUACGGUUACCGUACAGAGGAUAUACAAUGAUGC 28.5

// query apparent Kd value for entry UACAUGAGGAUCACCCAUGUUUUGUCGUGUAUGGUAUUUAUCUAGGAUAUCAAGUUGUUUAUUUAUGAGAAGGAGAAUAUUAAU 38.1

// query apparent Kd value for entry CUGAGCUGAGGAUAUACAUGAGGAUCACCCAUGUGUUGGAGCUUGCGUACAGGCAGAUGUAGAAGGCAGUUCGG 88.2

Source: the EternaBench riboswitch data
